Give measured T/C for each item. Keep answers brief.
# System: P388 leukemia ip, CD2F1 mice, survival T/C
# Measurement notes: NCI In Vivo Anticancer Drug Screen. Data for tumor model P388 Leukemia (intraperitoneal) in CD2F1 (CDF1) mice
# Measurement conditions: endpoint: median survival time; dose: 50.0 mg/kg/injection; schedule: Q01DX009 (ip); vehicle: saline with Tween-80; higher = longer survival
Inconclusive results and toxic doses are left out.

# input compound: `CN(C)c1cc(=O)c2ccc3ccccc3c2o1` ; wanted: its T/C
96 % of control

# input compound: `CC1(C)CCCc2c(-c3ccccc3)cc3c4[nH]c5ccccc5c4cc[n+]3c21` ; wanted: its T/C
99 % of control

# input compound: N#CC1C(=O)NC(=S)NC1c1ccc(C2CC(=O)NC(=S)N2)cc1 (stereo unspecified) ; wanted: its T/C
104 % of control

# input compound: `CCC[n+]1ccc(/C=N\NC(N)=S)c2ccccc21` ; wanted: its T/C
110 % of control

# input compound: `NC(=O)n1ncnc1N` ; wanted: its T/C
107 % of control

# input compound: CC1(CCl)Nc2ccccc2C(=O)N1c1ccc(F)cc1 (stereo unspecified) ; wanted: its T/C
103 % of control
